test system: Escherichia coli; test: Antibacterial activity against Escherichia coli ATCC 25922; assay type: functional

- molecule: "C=CCc1ccc(OCC(=O)NC(CCCCN)C(=O)NCCCC)c(-c2ccc(OCC(=O)NC(CCCCN)C(=O)NCCCC)c(CC=C)c2)c1.O=C(O)C(F)(F)F.O=C(O)C(F)(F)F (stereo unspecified)"
  units.of.measure: "µg/mL"
  limit.sign: "="
  MIC: 32
- molecule: "C=CCc1ccc(OCC(=O)NC(CCCCN)C(=O)NCc2ccc(C(C)(C)C)cc2)c(-c2ccc(OCC(=O)NC(CCCCN)C(=O)NCc3ccc(C(C)(C)C)cc3)c(CC=C)c2)c1.O=C(O)C(F)(F)F.O=C(O)C(F)(F)F (stereo unspecified)"
  units.of.measure: "µg/mL"
  limit.sign: "="
  MIC: 128
- molecule: "CN[C@H](CC(C)C)C(=O)N[C@H]1C(=O)N[C@@H](CC(N)=O)C(=O)N[C@H]2C(=O)N[C@H]3C(=O)N[C@H](C(=O)N[C@H](C(=O)O)c4cc(O)cc(O)c4-c4cc3ccc4O)[C@H](O)c3ccc(c(Cl)c3)Oc3cc2cc(c3O[C@@H]2O[C@H](CO)[C@@H](O)[C@H](O)[C@H]2O[C@H]2C[C@](C)(N)[C@H](O)[C@H](C)O2)Oc2ccc(cc2Cl)[C@H]1O"
  units.of.measure: "µg/mL"
  limit.sign: ">"
  MIC: 128
- molecule: "C=CCc1ccc(OCCC[N+](C)(C)CCCCCC)c(-c2ccc(OCCC[N+](C)(C)CCCCCC)c(CC=C)c2)c1.[Br-].[Br-]"
  units.of.measure: "µg/mL"
  limit.sign: "="
  MIC: 4
- molecule: "C=CCc1ccc(OCCC[N+](C)(C)CCCC)c(-c2ccc(OCCC[N+](C)(C)CCCC)c(CC=C)c2)c1.[Br-].[Br-]"
  units.of.measure: "µg/mL"
  limit.sign: "="
  MIC: 16
- molecule: "C=CCc1ccc(OCC(=O)NCCCN)c(-c2ccc(OCC(=O)NCCCN)c(CC=C)c2)c1.O=C(O)C(F)(F)F.O=C(O)C(F)(F)F"
  units.of.measure: "µg/mL"
  limit.sign: "="
  MIC: 128
- molecule: "C=CCc1ccc(OCC(=O)NCCC[N+](C)(C)CCCCCCCCCCCC)c(-c2ccc(OCC(=O)NCCC[N+](C)(C)CCCCCCCCCCCC)c(CC=C)c2)c1.[Br-].[Br-]"
  units.of.measure: "µg/mL"
  limit.sign: "="
  MIC: 32
- molecule: "C=CCc1ccc(OCC(=O)NCCC[N+](C)(C)CCCCCC)c(-c2ccc(OCC(=O)NCCC[N+](C)(C)CCCCCC)c(CC=C)c2)c1.[Br-].[Br-]"
  units.of.measure: "µg/mL"
  limit.sign: "="
  MIC: 16
- molecule: "C=CCc1ccc(OCC(=O)NCCN)c(-c2ccc(OCC(=O)NCCN)c(CC=C)c2)c1.O=C(O)C(F)(F)F.O=C(O)C(F)(F)F"
  units.of.measure: "µg/mL"
  limit.sign: "="
  MIC: 64
- molecule: "C=CCc1ccc(OCC(=O)NC(CCCCN)C(=O)NCCCCCCCCCCCC)c(-c2ccc(OCC(=O)NC(CCCCN)C(=O)NCCCCCCCCCCCC)c(CC=C)c2)c1.O=C(O)C(F)(F)F.O=C(O)C(F)(F)F (stereo unspecified)"
  units.of.measure: "µg/mL"
  limit.sign: ">"
  MIC: 128
- molecule: "C=CCc1ccc(OCCC[N+](C)(C)CCCCCCCC)c(-c2ccc(OCCC[N+](C)(C)CCCCCCCC)c(CC=C)c2)c1.[Br-].[Br-]"
  units.of.measure: "µg/mL"
  limit.sign: "="
  MIC: 8
